# System Tested: human glucagon receptor (human) (UniProt P47871)
# Test Name: cell-based or functional assay
Where no end group is shown, it is not given here. Side-chain parts run from the residue outwards. [ ]: non-standard residue; d: D form. The star is where a group is joined. Decanoyl(10-(4-HOOC-PhO)) = O=C(O)c1ccc(OCCCCCCCCCC(=O)*)cc1; αMePhe(2-F) = C[C@](N)(Cc1ccccc1F)C(=O)O; αMeY = C[C@](N)(Cc1ccc(O)cc1)C(=O)O; αMeL = CC(C)C[C@](C)(N)C(=O)O; Orn = NCCC[C@H](N)C(=O)O; AEEA = NCCOCCOCC(=O)O; Aib = CC(C)(N)C(=O)O
Measured cAMP EC50 accompanies every entry in the list below.

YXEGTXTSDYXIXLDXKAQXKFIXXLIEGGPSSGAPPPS (Y-Aib-EGT-αMeF(2F)-TSDY-Aib-I-αMeL-LD-Orn-K((2-[2-(2-Amino-ethoxy)-ethoxy]-acetyl)2-(10-(4-carboxyphenoxy)decanoyl))AQ-Aib-K((2-[2-(2-Amino-ethoxy)-ethoxy]-acetyl)2-(10-(4-carboxyphenoxy)decanoyl))FI-(D-Glu)-αMeY-LIEGGPSSGAPPPS-NH2) [Example 393]    > 9.95 µM

Here is the next item to consider.
**Q:** Would you mind telling me what cAMP EC50 value was observed for Y[Aib]EGT[αMePhe(2-F)]TSDV[Aib]I[αMeL]LD[Orn]K([AEEA-AEEA-Decanoyl(10-(4-HOOC-PhO))])AQ[Aib]EFI[dE][αMeY]LIK([AEEA-AEEA-Decanoyl(10-(4-HOOC-PhO))])GGPSSGAPPPS-NH2 [Example 397] ?
**A:** > 9.95 µM
